Hello, the source for this data is paper PMC6211257, in case you need it.

# Tested on: normal prostate epithelium (PNT-1A) cells
# assay_protocol: MTT cytotoxicity assay, PNT-1A
# Format: cell-based, human
# conditions: normal cell, 48 h, means of three independent experiments, read-out: IC50 PNT-1A
# Description: The cells studied were obtained from the American Type Culture Collection (ATCC, Manassas, VA), and included human colorectal adenocarcinoma (DLD-1), cervix carcinoma (HeLa), breast adenocarcinoma (MDA-MB-231), colon adenocarcinoma (HT-29), endometrial adenocarcinoma (ECC-1), prostate cancer (DU-145 and PC-3), normal embryonic kidney (HEK-293), normal prostate epithelium (PNT-1A), and normal retinal pigment epithelium (ARPE-19) cells. […]
pIC50: −log10 of the molar value.
Class TRUE: pIC50 at least 4. Class FALSE: pIC50 below 4.

A selection of reference data follows.
| substance_smiles | system_under_test | class_assignment |
| --- | --- | --- |
| CC(=O)[O][Ag][N](N=Nc1ccc(C(=O)O)cc1)c1cccc(S(N)(=O)=O)c1 | normal prostate epithelium (PNT-1A) cells | TRUE |
| COc1ccc(N=N[N]([Ag][O]C(C)=O)c2cccc(S(N)(=O)=O)c2)cc1OC | normal prostate epithelium (PNT-1A) cells | FALSE |
| CC(=O)[O][Ag][N](N=Nc1ccc(F)cc1)c1cccc(S(N)(=O)=O)c1 | normal prostate epithelium (PNT-1A) cells | FALSE |
| CC(=O)[O][Cu-]1([O]C(C)=O)[N](c2cccc(S(N)(=O)=O)c2)N=[N+]1c1cc(C)cc(C)c1 | normal prostate epithelium (PNT-1A) cells | TRUE |
| COc1ccc(N=N[N]([Ag][O]C(C)=O)c2cccc(S(N)(=O)=O)c2)cc1 | normal prostate epithelium (PNT-1A) cells | TRUE |

// switching to the query molecule
# check: pIC50 of "CC(=O)[O][Cu-]1([O]C(C)=O)[N](c2cccc(S(N)(=O)=O)c2)N=[N+]1c1ccc(F)cc1" is greater than or equal to 4 TRUE
